For each entry below, report its THP-1 IC50 value.
- system-name: T1, TNFR1 on THP-1 Lucia NF-kB reporter cells (UniProt P19438 30-455, limits assumed)
- T1 sequence (looked up): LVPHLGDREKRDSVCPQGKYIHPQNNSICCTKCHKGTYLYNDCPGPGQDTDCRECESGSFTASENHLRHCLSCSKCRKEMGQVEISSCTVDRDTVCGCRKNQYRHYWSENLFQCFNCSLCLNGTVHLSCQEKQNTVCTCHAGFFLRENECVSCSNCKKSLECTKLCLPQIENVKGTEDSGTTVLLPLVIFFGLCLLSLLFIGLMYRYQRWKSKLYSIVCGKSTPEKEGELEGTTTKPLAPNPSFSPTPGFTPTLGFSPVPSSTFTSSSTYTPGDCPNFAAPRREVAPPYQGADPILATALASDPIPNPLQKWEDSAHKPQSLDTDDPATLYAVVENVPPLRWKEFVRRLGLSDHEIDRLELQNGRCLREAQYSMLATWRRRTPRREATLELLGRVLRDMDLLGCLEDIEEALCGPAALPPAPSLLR
- experiment-summary: cell-based or functional assay
Bridge positions count the residues as written; N and C are the ends. Square brackets hold non-standard residues; d marks the D form. Primed or numbered codes have the meaning given here. Trp(βS-Me,7-OMe) = COc1cccc2c([C@H](C)[C@H](N)C(=O)O)c[nH]c12; Trp(7-CN) = N#Cc1cccc2c(C[C@H](N)C(=O)O)c[nH]c12; Trp(7-Cl) = N[C@@H](Cc1c[nH]c2c(Cl)cccc12)C(=O)O; Phe(4-CONH2) = NC(=O)c1ccc(C[C@H](N)C(=O)O)cc1; Phe(4-COOH) = N[C@@H](Cc1ccc(C(=O)O)cc1)C(=O)O; Trp(7-aza) = N[C@@H](Cc1c[nH]c2ncccc12)C(=O)O; 4Pal = N[C@@H](Cc1ccncc1)C(=O)O; NMeE = CN[C@@H](CCC(=O)O)C(=O)O; dHyp = O=C(O)[C@H]1C[C@H](O)CN1; dNMeE = CN[C@H](CCC(=O)O)C(=O)O; Pipt5OH = not defined here; αMeS = C[C@](N)(CO)C(=O)O; Nle = CCCC[C@H](N)C(=O)O; Pip2c = not defined here; Ahp′ = not defined here; Sar = CNCC(=O)O
Answers are plain numbers, in nM.

[
  {
    "binder": "cyclo([bhcLeu][Ahp′][SbMe4Pal]DW[dHyp]N[Phe(4-COOH)][Trp(7-CN)][αMeS][Phe(4-CONH2)][Phe(4-CONH2)][Sar][Trp(βS-Me,7-OMe)]) (reading uncertain; also: printed as cyclo(bhcLeu-Ahp-SbMe4Pal-D-W-dProt4OH-N-Phe4COOH-Trp7CN-aMeS-Phe4CONH2-Phe4CONH2-Sar-SbMeW7OMe)) [SEQ ID NO. 55]",
    "property-name": "THP-1 IC50",
    "quantitative-readout": 1.3
  },
  {
    "binder": "cyclo([bhcLeu][Nle][4Pal][Pipt5OH][Trp(7-aza)][dNMeE]N[F4SO2NH2][Trp(7-CN)][αMeS][Phe(4-CONH2)][Phe(4-COOH)][Sar][Trp(βS-Me,7-OMe)]) (reading uncertain) [SEQ ID NO. 133]",
    "property-name": "THP-1 IC50",
    "quantitative-readout": 1.4
  },
  {
    "binder": "cyclo([bhcLeu][Nle][4Pal][Pip2c]W[NMeE]N[4Pal][Trp(7-Cl)][αMeS][F4MCO2H]Y[Sar][Trp(βS-Me,7-OMe)]) (reading uncertain; also: printed as cyclo(bhcLeu-Nle-4Pal-Pip2c-W-NMeE-N-4Pal-Trp7Cl-aMeS-F4MCO2H-Y-Sar-SbMeW7OMe)) [SEQ ID NO. 111]",
    "property-name": "THP-1 IC50",
    "quantitative-readout": 1.6
  }
]

List THP-1 IC50 for every entry below, keeping the order given.
1. {CH2CO}-[Nle][4Pal][Pip2c][TrpCH2COOH][NMeE]N[Phe(4-COOH)][Trp(7-Cl)][αMeS][Phe(4-CONH2)]Y[Sar][Trp(βS-Me,7-OMe)]C-NH2 (thioether N-14; reading uncertain; also: printed as cyclo(ClAc-Nle-4Pal-Pip2c-TrpCH2COOH-NMeE-N-Phe4COOH-Trp7Cl-aMeS-Phe4CONH2-Y-Sar-SbMeW7OMe-C)-NH2) [SEQ ID NO. 52]
2. {CH2CO}-[Nle][PyrimAla][Pip2c][Trp(7-aza)][NMeE]N[4Pal][Trp(7-Cl)][αMeS][Phe(4-COOH)]Y[Sar][Trp(βS-Me,7-OMe)]C-NH2 (thioether N-14; reading uncertain; also: printed as cyclo(ClAc-Nle-PyrimAla-Pip2c-Trp7az-NMeE-N-4Pal-Trp7Cl-aMeS-Phe4COOH-Y-Sar-SbMeW7OMe-C)-NH2) [SEQ ID NO. 65]

Solution:
1: 3.9; 2: 4
